- Protocol: Human HepG2 cell viability assay in 384 well format
- Assay type: toxicity, cell-based
- Parameters: dose 125 nL, time 70.5 hour; concentration not given beside the values
- Test Parameters: HepG2 cells, read-out: Inhibition
# cytotoxicity at 70.5 h per record follows
Endpoint Name: cytotoxicity at 70.5 h (%)

> print(dat)
                                   compound  reported.value
1  Cc1nccn1CC1CCCN1CCCc1nc(-c2cccs2)no1 (stereo not drawn)            9.19
2      COc1ccc(CNCc2c(C)nn(C)c2N2CCOCC2)cc1           -3.63
3  Cc1cccc(CN2CCC3(CCN(Cc4ccccn4)C3)C2=O)c1 (stereo not drawn)            27.9

====

# cytotoxicity at 70.5 h per record follows
- Protocol: Human HepG2 cell viability assay in 384 well format
- Assay type: toxicity, cell-based
- Design: dose 125 nL, time 70.5 hour; concentration not given beside the values
- Test Parameters: HepG2 cells, read-out: Inhibition
Endpoint Name: cytotoxicity at 70.5 h (%)

> print(dat)
                                    compound  endpoint.unit  reported.value
 1   Cc1ccc(C(=O)NCCNC(=O)c2cncnc2C(C)C)cc1F              %           -7.29
 2  CC(=O)N1CCC2(CC1)CCN(S(=O)(=O)c1ccccc1)C2              %            29.2
 3                  NCC1(c2cccc(Br)c2)CCOCC1              %           -5.45
 4  Cc1ccc(NC(=O)NC(C)c2nc[nH]n2)cc1Cl (stereo not given)              %           -3.17
 5  COc1ccc(S(=O)(=O)N2C[C@@H]3CN(C)CCO[C@@H]3C2)cc1              %           -4.18
 6  CN(CC(=O)N1CCCC1c1noc(C2CC2)n1)S(C)(=O)=O (stereo not given)              %           -12.3
 7  CC(CC(=O)N1CCCN(Cc2nccn2C)CC1)n1cccc1 (stereo not given)              %           -12.4
 8  CCCSCC(=O)N1CCCC(CO)(CCC)C1 (stereo not given)              %           -22.8
 9  Cc1nc(C)n(CC2CCCCN2CCc2ccncc2)n1 (stereo not given)              %            16.8
10  CC(=O)Nc1ccc(CNCc2ccc(CS(C)(=O)=O)cc2)cc1              %            15.3
11  c1ccc(Cc2n[nH]c(C3CCOC3)n2)cc1 (stereo not given)              %           -3.76
12  O=C(COCC1CC1)N1CCCC(n2cncn2)C1 (stereo not given)              %           -9.93
13  Cc1cccc(C2CCCCCN2C(=O)c2cn(CC(N)=O)nn2)c1 (stereo not given)              %           -6.65
14  O=C(NCCC1CN(C2CCCC2)CCO1)c1cc(=O)[nH]c(=O)[nH]1 (stereo not given)              %           -11.6
15         O=C(c1cc(Br)ccc1-n1cnnn1)N1CCCCC1              %            6.11
